GI50: recorded values
- Tested on: SW-620
- protocolText: NCI tumour cell line growth inhibition, 48 h
Active and inactive are the calls of the source. No stated cut-off is given here; in the data, active = GI50 up to about 1.1 µM and inactive = higher.
valueKind: GI50

compound	studySystem	valueKind	result
COc1ccc(CN(Cc2ccc(OC)cc2)C(=O)CC2(O)C=CCC2)cc1 (configuration not stated)	SW-620	GI50	> 100 µM (inactive)
CC1=C(CO)C(=O)O[C@@H]([C@@H](CO)[C@H]2CCC3C4C[C@@H](O)[C@@]5(O)CC=CC(=O)[C@]5(C)C4CC[C@@]32C)C1 (some centres not stated)	SW-620	GI50	29 µM (inactive)
CCOC(=O)C1C(C)C2(C#N)C(=N)OC1(C)C2(C#N)C#N (configuration not stated)	SW-620	GI50	84.7 µM (inactive)
NC(CCCCNC(=O)OCc1ccccc1)C(=O)NC(CCCCNC(=O)OCc1ccccc1)C(=O)ON1C(=O)CCC1=O (configuration not stated)	SW-620	GI50	> 100 µM (inactive)
CS(=O)(=O)Nc1ccc(Nc2c3ccccc3nc3ccccc23)cc1	SW-620	GI50	1.11 µM (active)
C/C1=C/C(C)CC(C)OC(=O)C(C)NC(=O)C(Cc2ccc(O)c(I)c2)N(C)C(=O)C(C)NC(=O)C(C)C1 (configuration not stated)	SW-620	GI50	< 0.01 µM (active)
CN(C)CCNC(=O)c1cnn(C)c1[N+](=O)[O-]	SW-620	GI50	79.6 µM (inactive)
C=CCCCC1CCCNC1=O (configuration not stated)	SW-620	GI50	> 100 µM (inactive)
CC(C)C(=O)/C=C/c1c(Cl)cccc1Cl	SW-620	GI50	2.98 µM (inactive)
Cc1cc(C=O)c2c(=O)c3c(O)ccc(/C=C/C(C)C)c3oc2c1	SW-620	GI50	28.1 µM (inactive)
CC(Cc1ccccc1)Nc1ncnc2c1ncn2C1OC(CO)CC1O (configuration not stated)	SW-620	GI50	> 100 µM (inactive)
COc1ccc2c(c1OC)C[C@@H]1c3c(cc4c(c3-2)OCO4)CCN1C	SW-620	GI50	29.8 µM (inactive)
Cc1cc(O)nc(CNC(=O)Cc2ccccc2)n1	SW-620	GI50	> 100 µM (inactive)
COC(=O)c1nn2ccc3ccccc3c2c1C(=O)OC	SW-620	GI50	> 100 µM (inactive)
Cc1nnc(Sc2nc(C#N)c(C#N)nc2Sc2nnc(C)s2)s1	SW-620	GI50	1.67 µM (inactive)
N#CC(C#N)=C1CCCS(=O)(=O)c2ccccc21	SW-620	GI50	> 100 µM (inactive)
COc1cc(O)c2c(=O)cc(C3(O)C=CC(=O)C=C3)oc2c1	SW-620	GI50	< 0.0417 µM (active)
NC(C/C=C/P(=O)(O)O)C(=O)O (configuration not stated)	SW-620	GI50	> 100 µM (inactive)
Cc1cccc(-n2c(C)nc3ccc(NC(=S)Nc4ccccc4)cc3c2=O)c1	SW-620	GI50	> 100 µM (inactive)
NC(CCC(=O)NC(CSCC1C(=O)Nc2ccccc21)C(=O)NCC(=O)O)C(=O)O (configuration not stated)	SW-620	GI50	4.28 µM (inactive)
COc1ccc(/C(=N\NC(=O)C(=O)NN)C(c2ccc(OC)cc2)C2(O)C(=O)Nc3ccccc32)cc1 (configuration not stated)	SW-620	GI50	> 100 µM (inactive)
Nc1c(C(=O)O)c2ccc([N+](=O)[O-])cc2c(=O)n1-c1nc2ccccc2s1	SW-620	GI50	> 100 µM (inactive)
